# TEST_CONDITIONS: in isopropanol, 303.15 K
MEASUREMENT_TYPE: solubility (mole fraction)

A = O=C1C[C@@H](c2ccc(O)cc2)Oc2cc(O)cc(O)c21
B = C[C@@H]1O[C@@H](O[C@H]2[C@H](Oc3cc(O)c4c(c3)O[C@H](c3ccc(O)cc3)CC4=O)O[C@H](CO)[C@@H](O)[C@@H]2O)[C@H](O)[C@H](O)[C@H]1O
Kindly identify the item with the lower solubility (mole fraction) figure among these two: A and B Respond with the label that goes with your answer.
B
(B: 2.46e-05, A: 0.0161)

---

# TEST_CONDITIONS: in methanol, 313.15 K
MEASUREMENT_TYPE: solubility (mole fraction)

A = O=C1C[C@@H](c2ccc(O)cc2)Oc2cc(O)cc(O)c21
B = C[C@@H]1O[C@@H](O[C@H]2[C@H](Oc3cc(O)c4c(c3)O[C@H](c3ccc(O)cc3)CC4=O)O[C@H](CO)[C@@H](O)[C@@H]2O)[C@H](O)[C@H](O)[C@H]1O
Between A and B , whose recorded solubility (mole fraction) is greater? Return value: the label identifying the chosen record.
A
(A: 0.0144, B: 0.00291)
